# assay: Solubility in acetonitrile, calculated based on the total solvent used to give a solution
# Format: physicochemical
# applied.conditions: organic solvent or mixture, thermodynamic from solid
Structures can show the parent of a compound that is named as a salt.
result.type: solubility

compound: CCc1ccc(C(=O)C(C)CN2CCCCC2)cc1 (single isomer, unassigned) [substantially enantiopure crystalline eperisone hydrochloride, eperisone hydrochloride]
value: > 11 mg/mL

Data origin, for the record: patent US20110281911A1
